# System: NCI-H727
# RUN DESCRIPTION: relative viability (nuclei count vs DMSO), 5 days (fraction); higher = more cells survive
# MEASUREMENT CONDITIONS: first compound 0.0002 µM
Overview of recorded relative viability for various molecules
Give your answer as a number; write no unit.

Known results for molecules:
- MOLECULE: "CC(=O)O[C@@]12CO[C@@H]1C[C@H](O)[C@@]1(C)C(=O)[C@H](O)C3=C(C)[C@@H](OC(=O)[C@H](O)[C@@H](NC(=O)OC(C)(C)C)c4ccccc4)C[C@@](O)([C@@H](OC(=O)c4ccccc4)[C@H]21)C3(C)C [Docetaxel] + N=C(N)NC(=N)NCCc1ccccc1 [Phenformin] (partner 250 µM)"
  TARGET DESC: "NCI-H727"
  relative viability: 0.49
- MOLECULE: "CC(=O)O[C@@]12CO[C@@H]1C[C@H](O)[C@@]1(C)C(=O)[C@H](O)C3=C(C)[C@@H](OC(=O)[C@H](O)[C@@H](NC(=O)OC(C)(C)C)c4ccccc4)C[C@@](O)([C@@H](OC(=O)c4ccccc4)[C@H]21)C3(C)C [Docetaxel] + CCNC(=O)c1noc(-c2cc(C(C)C)c(O)cc2O)c1-c1ccc(CN2CCOCC2)cc1 [Luminespib] (partner 0.01 µM)"
  TARGET DESC: "NCI-H727"
  relative viability: 0.753

Consider the additional molecule presented here.
Q) relative viability lookup needed for CC(=O)O[C@@]12CO[C@@H]1C[C@H](O)[C@@]1(C)C(=O)[C@H](O)C3=C(C)[C@@H](OC(=O)[C@H](O)[C@@H](NC(=O)OC(C)(C)C)c4ccccc4)C[C@@](O)([C@@H](OC(=O)c4ccccc4)[C@H]21)C3(C)C [Docetaxel] + CC(=O)Nc1cccc(-n2c(=O)n(C3CC3)c(=O)c3c(Nc4ccc(I)cc4F)n(C)c(=O)c(C)c32)c1 [Trametinib] (partner 0.02 µM) , thanks.
A) 0.398

---

# System: NCI-H358
# RUN DESCRIPTION: relative viability (nuclei count vs DMSO), 5 days (fraction); higher = more cells survive
# MEASUREMENT CONDITIONS: first compound 0.08 µM
MEASURED QUANTITY: relative viability
Write no unit; give the number alone.

The following compounds have reported results that may help.
- COMPOUND: "O=c1[nH]c2ccccc2n1C1CCN(CCCC(c2ccc(F)cc2)c2ccc(F)cc2)CC1 [Pimozide] + CC(=O)Nc1cccc(-n2c(=O)n(C3CC3)c(=O)c3c(Nc4ccc(I)cc4F)n(C)c(=O)c(C)c32)c1 [Trametinib] (partner 0.02 µM)"
  OBS VALUE: 0.135
- COMPOUND: "O=c1[nH]c2ccccc2n1C1CCN(CCCC(c2ccc(F)cc2)c2ccc(F)cc2)CC1 [Pimozide] + O=C(CCCCCCC(=O)Nc1ccccc1)NO [Vorinostat] (partner 1 µM)"
  OBS VALUE: 0.697
- COMPOUND: "Cc1cnc(-c2cnc(NCCNc3ccc(C#N)cn3)nc2-c2ccc(Cl)cc2Cl)[nH]1 + Nc1ncn([C@H]2C[C@H](O)[C@@H](CO)O2)c(=O)n1 [Decitabine] (partner 2 µM)"
  OBS VALUE: 0.234

Q) What relative viability value was documented for this compound, O=c1[nH]c2ccccc2n1C1CCN(CCCC(c2ccc(F)cc2)c2ccc(F)cc2)CC1 [Pimozide] + O=C(c1cc(Cc2n[nH]c(=O)c3ccccc23)ccc1F)N1CCN(C(=O)C2CC2)CC1 [Olaparib] (partner 8 µM) ?
A) 0.596

Q) Endpoint output: relative viability of Cc1cnc(-c2cnc(NCCNc3ccc(C#N)cn3)nc2-c2ccc(Cl)cc2Cl)[nH]1 + O=C(CCCCCCC(=O)Nc1ccccc1)NO [Vorinostat] (partner 1 µM) . Value?
A) 0.787

Q) Report relative viability for Cc1cnc(-c2cnc(NCCNc3ccc(C#N)cn3)nc2-c2ccc(Cl)cc2Cl)[nH]1 + Cc1cc(Nc2cc(N3CCN(C)CC3)nc(Sc3ccc(NC(=O)C4CC4)cc3)n2)n[nH]1 [Tozasertib] (partner 0.1 µM) please.
A) 0.101

Q) Endpoint output: relative viability of O=c1[nH]c2ccccc2n1C1CCN(CCCC(c2ccc(F)cc2)c2ccc(F)cc2)CC1 [Pimozide] + CS(=O)(=O)N1CCN(Cc2cc3nc(-c4cccc5[nH]ncc45)nc(N4CCOCC4)c3s2)CC1 [Pictilisib] (partner 1 µM) . Value?
A) 0.292
